Tested on: cyclin K–eGFP degradation reporter
Procedure Summary: Cyclin K reporter stability analysis (dual-color cyclin K–eGFP reporter)
Assay type: cell-based, human
Condition Info: Supplementary Table 2; HEK293T cycK-eGFP reporter, 5 h; read-out: Cellular assays DC50
Exercise: state measured DC50 for each of the molecules provided.

In: # get_value(readout= DC50, system= cyclin K–eGFP degradation reporter) for "O=C(CSc1nc2ccccc2[nH]1)Nc1ccc(Cl)cn1"
Out: > 10 µM

In: Query for cyclin K–eGFP degradation reporter: what DC50 does the record show for "CC[C@H](CO)Nc1nc(NCc2ccc(CN(C)C)cc2)c2ncn(C(C)C)c2n1" ?
Out: > 10 µM

In: Query for cyclin K–eGFP degradation reporter: what DC50 does the record show for "CC[C@H](CO)Nc1nc(NCCCCCc2cccc3ccccc23)c2ncn(C(C)C)c2n1" ?
Out: > 10 µM

In: State its DC50 on cyclin K–eGFP degradation reporter: "Cn1cc(-n2cnc3c(NCc4nc5cc(O)ccc5[nH]4)nc(N4CCOCC4)nc32)cn1"
Out: > 10 µM

In: Quick check: DC50 on cyclin K–eGFP degradation reporter, item "CC[C@H](CO)Nc1nc(NCCCc2ccnn2C)c2ncn(C(C)C)c2n1" ?
Out: > 10 µM

In: Form field - read-out: DC50; system: cyclin K–eGFP degradation reporter; submitted item: COC[C@@H](C)N[C@H]1CC[C@H](Nc2cc(-c3cccc(NCC4(C#N)CCOCC4)n3)c(Cl)cn2)CC1 [NVP-2, reference compound]
Out: > 10 µM

In: Which DC50 is reported with cyclin K–eGFP degradation reporter for this entry: "CC[C@H](CO)Nc1nc(NCc2ccc(-c3ccccn3)cc2)c2ncn(-c3cnn(C)c3)c2n1" ?
Out: > 10 µM

In: Form: Entry = "CCCCCCCCNc1nc(N[C@H](CC)CO)nc2c1ncn2C(C)C" | System = cyclin K–eGFP degradation reporter | DC50 = ____
Out: > 10 µM

In: Param readout = DC50; param system = cyclin K–eGFP degradation reporter; param query = "CC[C@H](CO)Nc1nc(NCc2ccc3cc(O)ccc3c2)c2ncn(C(C)C)c2n1" ; response: value
Out: > 10 µM

In: State its DC50 on cyclin K–eGFP degradation reporter: CCC(CO)Nc1nc(NCc2ccc(-c3ccccc3)cc2)c2ncn(C(C)C)c2n1 (stereo not drawn)
Out: 1.03 µM

In: Hi! What's the reported DC50 for CN1CC[C@H](c2c(O)cc(O)c3c(=O)cc(-c4ccccc4Cl)oc23)[C@H](O)C1 [Flavopiridol, reference compound] on cyclin K–eGFP degradation reporter?
Out: > 10 µM

In: Request - read-out DC50 | tested on cyclin K–eGFP degradation reporter | molecule "CCCCN(CCCC)CCCNc1nc(N[C@H](CC)CO)nc2c1ncn2C(C)C"
Out: > 10 µM

In: Notebook entry, cyclin K–eGFP degradation reporter assay: DC50 of CN(C)C/C=C/C(=O)Nc1ccc(C(=O)N2CCC[C@@H](Nc3ncc(Cl)c(-c4c[nH]c5ccccc45)n3)C2)cc1 [THZ531, reference compound] = ?
Out: > 10 µM

In: Checklist item: DC50 tested on cyclin K–eGFP degradation reporter, entry "CC[C@H](CO)Nc1nc(NCCCc2ccccc2)c2ncn(C(C)C)c2n1" , value?
Out: > 10 µM

In: For the record "CC(C)n1cnc2c(NCc3ccc(-c4ccccn4)cc3)nc(NCCCCCC(=O)N[C@H]3O[C@H](CO)[C@@H](O)[C@H](O)[C@H]3O)nc21" , what value of DC50 is listed for cyclin K–eGFP degradation reporter?
Out: > 10 µM

In: Notebook entry, cyclin K–eGFP degradation reporter assay: DC50 of "CC[C@H](CO)Nc1nc(NC)c2ncn(C(C)C)c2n1" = ?
Out: > 10 µM

In: Recorded DC50 for CC(C)(C)c1cnc(CSc2cnc(NC(=O)C3CCN(CC(=O)NCCOCCOCCOCCNc4cccc5c4C(=O)N(C4CCC(=O)NC4=O)C5=O)CC3)s2)o1 (stereo not drawn) with cyclin K–eGFP degradation reporter, please?
Out: < 0.05 µM

In: cyclin K–eGFP degradation reporter / DC50 / "CC[C@H](CO)Nc1nc(NCc2ccc(-c3ccc4ccccc4c3)cc2)c2ncn(C(C)C)c2n1" : value?
Out: > 10 µM

In: cyclin K–eGFP degradation reporter / DC50 / "CC[C@H](CO)Nc1nc(NCc2ccc(-c3ccc(-c4ccccc4)cc3)cc2)c2ncn(C(C)C)c2n1" : value?
Out: > 10 µM

In: Item "CCCCc1ccc(CNc2nc(N[C@H](CC)CO)nc3c2ncn3C(C)C)cc1" with cyclin K–eGFP degradation reporter - DC50?
Out: > 10 µM

In: Write down the reported DC50 of CC(C)(C)c1cnc(CSc2cnc(NC(=O)C3CCNCC3)s2)o1 [SNS032, reference compound] , test system: cyclin K–eGFP degradation reporter.
Out: > 10 µM

In: # returns recorded DC50 (system: cyclin K–eGFP degradation reporter) for "CC[C@H](CO)Nc1nc(NCC2CCCCC2)c2ncn(C(C)C)c2n1"
Out: > 10 µM

In: Can you look up DC50 on cyclin K–eGFP degradation reporter for "CC[C@H](CO)Nc1nc(NCCC2CC2)c2ncn(C(C)C)c2n1" ?
Out: > 10 µM

In: Param readout= DC50; system= cyclin K–eGFP degradation reporter; entry= "CC[C@H](CO)Nc1nc(NCCc2ccccc2)c2ncn(C(C)C)c2n1" ; returns value.
Out: > 10 µM

In: Recorded DC50 for "CC[C@H](CO)Nc1nc(NCCCCc2ccccc2)c2ncn(C(C)C)c2n1" with cyclin K–eGFP degradation reporter, please?
Out: > 10 µM

In: Reported DC50 for cyclin K–eGFP degradation reporter, given CO[C@@H](C(=O)N1Cc2n[nH]c(NC(=O)c3ccc(N4CCN(C)CC4)cc3)c2C1)c1ccccc1 [Danusertib, reference compound] ?
Out: > 10 µM

In: Enter reported DC50 observed with cyclin K–eGFP degradation reporter for "O=C(CCn1cnc2ccccc2c1=O)Nc1ccc(Br)cn1"
Out: > 10 µM

In: Form field: DC50 recorded for CCc1ccc2nc(Nc3cc(Cc4ccccc4)nc(N[C@H]4CC[C@H](O)CC4)n3)sc2c1 [GSK2250665A, reference compound] with cyclin K–eGFP degradation reporter (enter value)
Out: > 10 µM

In: Identify the measured DC50 of "CCOCCOCCNc1nc(N[C@H](CC)CO)nc2c1ncn2C(C)C" for cyclin K–eGFP degradation reporter.
Out: > 10 µM

In: Could you share what DC50 was measured for CC[C@H](CO)Nc1nc(Nc2ccc(-c3ccccn3)cc2)c2ncn(C(C)C)c2n1 [DRF053, reference compound] , tested on cyclin K–eGFP degradation reporter?
Out: > 10 µM

In: Enter reported DC50 observed with cyclin K–eGFP degradation reporter for "CC[C@H](CO)Nc1nc(NCCCC2CCCCC2)c2ncn(C(C)C)c2n1"
Out: > 10 µM

In: Value wanted: DC50 (cyclin K–eGFP degradation reporter) of entry "CC[C@H](CO)Nc1nc(NCCCC2CCCC2)c2ncn(C(C)C)c2n1"
Out: > 10 µM

In: # returns recorded DC50 (system: cyclin K–eGFP degradation reporter) for "CC[C@H](CO)Nc1nc(NCCCc2ccncc2)c2ncn(C(C)C)c2n1"
Out: > 10 µM
